- ASSAY_SUMMARY: Solubility of nomegestrol acetate in solvent mixtures
- Format: physicochemical
- ASSAY_CONTEXT: ethanol/water/propyleneglycol ternary mixture, aqueous with cosolvent or surfactant or cyclodextrin, System II (Ethanol 95° 40%/Demineralized water 60%), 4% propyleneglycol; read-out: Solubilities

| COMPOUND | QUANTITY_UNIT | solubility |
| --- | --- | --- |
| CC(=O)O[C@]1(C(C)=O)CC[C@H]2[C@@H]3C=C(C)C4=CC(=O)CC[C@@H]4[C@H]3CC[C@@]21C [nomegestrol acetate] | µg/mL | 2600 |

* * *

- ASSAY_SUMMARY: Solubility of nomegestrol acetate in solvent mixtures
- Format: physicochemical
- ASSAY_CONTEXT: ethanol/water/Labrasol solvent mixture with propyleneglycol, aqueous with cosolvent or surfactant or cyclodextrin, System Ethanol 95° 45%/Water 50%/Labrasol® 5%, 15% propyleneglycol; read-out: Solubility of l'nomegestrol acetate
READOUT_TYPE: solubility (mg/mL)

| MOLECULE | READOUT_TYPE | QUANTITY_UNIT | NUMBER |
| --- | --- | --- | --- |
| CC(=O)O[C@]1(C(C)=O)CC[C@H]2[C@@H]3C=C(C)C4=CC(=O)CC[C@@H]4[C@H]3CC[C@@]21C [nomegestrol acetate] | solubility | mg/mL | 10.2 |
